# assayed.target: native PcrV on live Pseudomonas aeruginosa (strains O6-57/66, O11-PA103, O1-52/66, O16-177/81) (Pseudomonas aeruginosa)
# assay.overview: cell-based or functional assay
measured.endpoint: A549 cytotoxicity assay IC50 (P. aeruginosa strain PA103(O11))

binder	val
7B1 (antibody, V domains shown, also called 7B1-IgG1; 7B1 mAb) VH: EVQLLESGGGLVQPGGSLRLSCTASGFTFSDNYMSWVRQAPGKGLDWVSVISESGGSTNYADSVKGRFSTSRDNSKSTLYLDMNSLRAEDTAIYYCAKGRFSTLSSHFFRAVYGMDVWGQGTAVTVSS VL: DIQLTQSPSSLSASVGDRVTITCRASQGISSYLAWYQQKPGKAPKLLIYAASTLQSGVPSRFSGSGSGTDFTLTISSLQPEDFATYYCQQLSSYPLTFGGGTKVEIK	1.06 µg/mL
3A9 (antibody, V domains shown, also called optimized anti-PcrV mAb clone 3A9) VH: EVQLLESGGGLVQPGGSLRLSCTASGFTFSDYSMSWVRQAPGKGLDWVSGISESGGSTNYADSVKGRFSTSRDNSKSTLYLDMNSLRAEDTAIYYCAKGRFSDSTKHFFRAVYGMDVWGQGTAVTVSS VL: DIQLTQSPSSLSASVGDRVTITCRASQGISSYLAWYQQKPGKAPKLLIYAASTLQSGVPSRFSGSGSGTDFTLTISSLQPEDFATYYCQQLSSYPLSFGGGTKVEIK	1.21 µg/mL
7B2 (antibody, V domains shown, also called optimized anti-PcrV mAb clone 7B2) VH: EVQLLESGGGLVQPGGSLRLSCTASGFTFSDYPMSWVRQAPGKGLDWVSGISESGGSTNYADSVKGRFSTSRDNSKSTLYLDMNSLRAEDTAIYYCAKGRFSTDSSHFFRAVYGMDVWGQGTAVTVSS VL: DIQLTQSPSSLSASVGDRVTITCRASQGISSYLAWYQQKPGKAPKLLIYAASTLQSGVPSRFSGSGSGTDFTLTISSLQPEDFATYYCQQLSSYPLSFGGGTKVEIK	2.32 µg/mL
8C1 (antibody, V domains shown, also called optimized anti-PcrV mAb clone 8C1) VH: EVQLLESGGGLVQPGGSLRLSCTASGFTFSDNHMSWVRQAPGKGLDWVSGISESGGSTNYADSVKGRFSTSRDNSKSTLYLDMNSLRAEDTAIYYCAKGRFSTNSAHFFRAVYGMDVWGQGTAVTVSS VL: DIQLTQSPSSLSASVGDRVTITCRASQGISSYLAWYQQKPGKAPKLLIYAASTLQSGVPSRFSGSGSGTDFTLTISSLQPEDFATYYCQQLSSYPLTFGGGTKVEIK	1.94 µg/mL
4A10 (antibody, V domains shown, also called optimized anti-PcrV mAb clone 4A10) VH: EVQLLESGGGLVQPGGSLRLSCTASGFTFSSYPMSWVRQAPGKGLDWVSGISESGGSTNYADSVKGRFSTSRDNSKSTLYLDMNSLRAEDTAIYYCAKGRFSDASEHFFRAVYGMDVWGQGTAVTVSS VL: DIQLTQSPSSLSASVGDRVTITCRASQGISSYLAWYQQKPGKTPKLLIYAASTLQSGVPSRFSGSGSGTDFTLTISSLQPEDFATYYCQQLSSYPLTFGGGTKVEIK	2.8 µg/mL
